The measured values listed here are drawn from ChEMBL document CHEMBL3272321.

EXPERIMENT: Drug excretion in albino mouse feces at 2 mg, sc after 24 hrs
Format: ADME, organism-based
MEASUREMENT_CONTEXT: faeces, read-out: Drug excretion
METRIC: dose excreted at 24 h (%)

[
  {
    "COMPOUND": "C=CCCC(C)(N)C(=O)O (configuration not stated)",
    "dose excreted at 24 h, %": 2.2
  },
  {
    "COMPOUND": "CC[C@](N)(Cc1ccccc1)C(=O)O",
    "dose excreted at 24 h, %": 2.1
  }
]

---

EXPERIMENT: Drug excretion in albino mouse urine at 2 mg, sc after 24 hrs
Assay type: ADME, organism-based
MEASUREMENT_CONTEXT: read-out: Drug excretion
METRIC: dose excreted at 24 h (%)

[
  {
    "COMPOUND": "C=CCCC(C)(N)C(=O)O (configuration not stated)",
    "UNITS_SYMBOL": "%",
    "dose excreted at 24 h": 97.6
  },
  {
    "COMPOUND": "CC[C@](N)(Cc1ccccc1)C(=O)O",
    "UNITS_SYMBOL": "%",
    "dose excreted at 24 h": 97.9
  }
]

---

EXPERIMENT: Retardation factor, Rf of the compound by paper chromatographic analysis
Format: physicochemical
METRIC: Rf

[
  {
    "COMPOUND": "CC(N)(C(=O)O)C1CC1 (centres undefined)",
    "METRIC": "Rf",
    "EXPERIMENTAL_VALUE": 0.56
  },
  {
    "COMPOUND": "C=CCCC(C)(N)C(=O)O (centres undefined)",
    "METRIC": "Rf",
    "EXPERIMENTAL_VALUE": 0.71
  },
  {
    "COMPOUND": "NC(C(=O)O)(C1CC1)C1CC1",
    "METRIC": "Rf",
    "EXPERIMENTAL_VALUE": 0.64
  },
  {
    "COMPOUND": "CC[C@](N)(Cc1ccccc1)C(=O)O",
    "METRIC": "Rf",
    "EXPERIMENTAL_VALUE": 0.77
  }
]

---

Tested on: Mus musculus
EXPERIMENT: Toxicity in albino mouse at 400 mg/kg, ip qd for 7 days measured after 7 days
Format: organism-based
Parameters: dose 400 mg/kg, route intraperitoneal
MEASUREMENT_CONTEXT: in vivo, 168 h
METRIC: Activity

[
  {
    "MOLECULE": "CC(N)(C(=O)O)C1CC1 (centres undefined)",
    "METRIC": "Activity",
    "EXPERIMENTAL_VALUE": "Non-toxic"
  },
  {
    "MOLECULE": "CC[C@](N)(Cc1ccccc1)C(=O)O",
    "METRIC": "Activity",
    "EXPERIMENTAL_VALUE": "Non-toxic"
  },
  {
    "MOLECULE": "NC(C(=O)O)(C1CC1)C1CC1",
    "METRIC": "Activity",
    "EXPERIMENTAL_VALUE": "Non-toxic"
  },
  {
    "MOLECULE": "C=CCCC(C)(N)C(=O)O (centres undefined)",
    "METRIC": "Activity",
    "EXPERIMENTAL_VALUE": "Non-toxic"
  }
]
